- assay_protocol: NCI Yeast Anticancer Drug Screen. Data for the wt2 strain (AID 169);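 further: 0% = growth of vehicle-treated yeast cultures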
- recorded_conditions: S. cerevisiae wt2 strain growth inhibition; at 33.0 µM
About 79,000 compounds went through this panel and 15% of them were active in at least one assay; those are over-represented in the sample as a whole. Active and inactive are the calls of the source. No stated cut-off is given here; in the data, active means growth inhibition above about 70%; inactive means the rest.
Please state which outcome applies, choosing from label 1 = active, label 0 = inactive

Query string: Answer briefly: the call reported for COc1cc(C(C)(C)C)cc(OC)c1C(O)(c1c(OC)cc(C(C)(C)C)cc1OC)c1c(OC)cc(C(C)(C)C)cc1OC in this assay.
Result string: label 1

Query string: Check the results log: what was the call for O=C(Cc1ccccc1F)NC1=C(Cl)C(=O)c2ccccc2C1=O ?
Result string: label 0

Query string: Lab log entry: Cc1[nH]nc(C(F)(F)F)c1N=NN(C)C — outcome as called in the assay?
Result string: label 1

Query string: Identify the outcome logged in this assay for the molecule shown: [Cl][Pt+2][Cl].[NH-]CC1(C[NH-])CCCCC1
Result string: label 1

Query string: I would be grateful if you could indicate the recorded call for CNc1ccc2[nH]c3ccccc3c2c1 .
Result string: label 0

====

- assay_protocol: NCI Yeast Anticancer Drug Screen. Data for the sgs1 mgt1 strain (AID 161);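 further: 0% = growth of cultures given vehicle only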
- recorded_conditions: S. cerevisiae sgs1 mgt1 strain, at 5.0 µM (retest, dose inferred, filed as 0.5)
This is part of a sample that, as a whole, favours compounds with a hit. Of some 79,000 tested, about 15% had one in any assay. Activity calls are given as the source filed them. Cut-off read from the data, not from the text of the source: active = growth inhibition above about 70%; inactive = the rest.
Valid outcomes are listed here; reply with one: true (1) for active, false (0) for inactive

Solved cases below.
Cc1[nH]nc(C(F)(F)F)c1N=NN(C)C : true (1)
O=S(=O)(CCC[C@H]1[C@@H](CCOCc2ccccc2)C2CCCN1O2)c1ccccc1 (some centres undefined) : false (0)
Cc1cc(NCCCN(C)C)c2ccc3c(ccc4c(NCCCN(C)C)cc(C)nc43)c2n1 : false (0)
Nc1c([N+](=O)[O-])cc2c3c(cccc13)CC2 : false (0)
CC(=O)c1ccc(NCN2C(=O)c3ccccc3C2=O)cc1 : false (0)

Please find the next compound below.
Query string: Per the assay record, what outcome was assigned to COc1ccc2nc3cccc([N+](=O)[O-])c3c(NCCCO)c2c1 ?
Result string: true (1)

====

- assay_protocol: NCI Yeast Anticancer Drug Screen. Data for the rad50EPP+ strain (AID 151);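 further: 0% = growth of vehicle-treated control cultures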
- recorded_conditions: S. cerevisiae rad50 mutant strain, at 11.0 µM, stronger effect = higher value
Compounds without any hit were thinned out: in the full panel of roughly 79,000, 15% have a hit.
measure_name: growth inhibition (%)
The answer is to be given in %; state only the numeric part.

Example results:
Cc1cccc(N2CCN(C(=O)/C(=C/c3ccccc3)NC(=O)c3ccccc3)CC2)c1 : 0
Cc1ccc(Nc2n[nH]c(=S)s2)cc1C : -21
CC(=O)c1ccc(NCN2C(=O)c3ccccc3C2=O)cc1 : 6
Oc1ccc(Cc2nccc3cc(O)c(O)cc23)cc1O : 22
c1ccc(C2=NNC3c4ccccc4-c4ccccc4N3C2)cc1 (centres undefined) : 5

Query string: # query: growth inhibition of entry CCCCCCCCCC/C=C\CC(=O)O
Result string: 11

Query string: Quick one: growth inhibition of Cc1cc(NC(=S)SCc2ccc(Cl)cc2)ccc1Cl ?
Result string: 92

Query string: Given the compound CCOC(=O)C1=C(C)NC(C)=C(C(=O)OCC)C1c1ccc(Cl)cc1 , what is its reported growth inhibition?
Result string: 16

Query string: Bench note: what growth inhibition did C#CC1=CC(=O)C(OC)=CC1=O show?
Result string: 43

meta.source: PubChem BioAssay (NCI)
